Form field: Log reduction from vehicle (CFU/g) (one value per entry).
Test system: P. aeruginosa ATCC 27853
Conditions: ATCC 27853, in vivo, iv, 2 mg/kg, 6 h
Structures can show the parent of a compound that is named as a salt. Bridge positions count the residues as written; N and C are the ends. Square brackets hold non-standard residues; d marks the D form. Peptide text beside a SMILES is read from it. * marks the point of attachment. ξ: configuration not given here. X6 = N[C@@H](CC(=O)*)c1ccc2ccccc2c1; ξβ3hGly(cHex) = NC(CC(=O)*)C1CCCCC1; Thr(3ξ) = CC(O)[C@H](N)C(=O)O; X10 = NC1(CC(=O)*)CCCCC1; Dab = NCC[C@H](N)C(=O)O; Dap = NC[C@H](N)C(=O)O
reported property: Log reduction from vehicle (CFU/g) (log CFU/g)

1. CC(C)C[C@@H]1NC(=O)[C@@H](Cc2ccccc2)NC(=O)[C@H](CCN)NC(=O)[C@@H](NC(=O)[C@H](CCN)NC(=O)[C@@H](NC(=O)C[C@H](N)c2ccc3ccccc3c2)C(C)O)CCNC(=O)[C@H](C(C)O)NC(=O)[C@H](CCN)NC(=O)[C@H](CCN)NC1=O (stereo partly shown) [Example 38, trifluoroacetate salt] (X6-[Thr(3ξ)][Dab][Dab][Dab][dF]L[Dab][Dab][Thr(3ξ)]; lactam 3-C)    −0.37
2. CC(C)C[C@@H]1NC(=O)[C@@H](Cc2ccccc2)NC(=O)[C@H](CCN)NC(=O)[C@@H](NC(=O)[C@H](CN)NC(=O)[C@@H](NC(=O)CC(N)C2CCCCC2)C(C)O)CCNC(=O)[C@H](C(C)O)NC(=O)[C@H](CCN)NC(=O)[C@H](CCN)NC1=O (stereo partly drawn) [Example 47, TFA salt] ({ξβ3hGly(cHex)}-[Thr(3ξ)][Dap][Dab][Dab][dF]L[Dab][Dab][Thr(3ξ)]; lactam 3-C)    −0.09
3. CC(C)C[C@@H]1NC(=O)[C@@H](Cc2ccccc2)NC(=O)[C@H](CCN)NC(=O)[C@@H](NC(=O)[C@H](CCN)NC(=O)[C@@H](NC(=O)CC2(N)CCCCC2)C(C)O)CCNC(=O)[C@H](C(C)O)NC(=O)[C@H](CCN)NC(=O)[C@H](CCN)NC1=O (stereo partly shown) [Example 42, TFA salt] (X10-[Thr(3ξ)][Dab][Dab][Dab][dF]L[Dab][Dab][Thr(3ξ)]; lactam 3-C)    −0.03
4. CC(C)C[C@@H]1NC(=O)[C@@H](Cc2ccccc2)NC(=O)[C@H](CCN)NC(=O)[C@@H](NC(=O)[C@H](CCN)NC(=O)[C@@H](NC(=O)C(O)C2CCCCC2)C(C)O)CCNC(=O)[C@H](C(C)O)NC(=O)[C@H](CCN)NC(=O)[C@H](CCN)NC1=O (mixture of isomers)    0.24
